Data provenance: ChEMBL document CHEMBL3286236

# targetUnderTest: Cholinesterase (Equus caballus, UniProt P81908)
# Sequence (P81908 whole entry): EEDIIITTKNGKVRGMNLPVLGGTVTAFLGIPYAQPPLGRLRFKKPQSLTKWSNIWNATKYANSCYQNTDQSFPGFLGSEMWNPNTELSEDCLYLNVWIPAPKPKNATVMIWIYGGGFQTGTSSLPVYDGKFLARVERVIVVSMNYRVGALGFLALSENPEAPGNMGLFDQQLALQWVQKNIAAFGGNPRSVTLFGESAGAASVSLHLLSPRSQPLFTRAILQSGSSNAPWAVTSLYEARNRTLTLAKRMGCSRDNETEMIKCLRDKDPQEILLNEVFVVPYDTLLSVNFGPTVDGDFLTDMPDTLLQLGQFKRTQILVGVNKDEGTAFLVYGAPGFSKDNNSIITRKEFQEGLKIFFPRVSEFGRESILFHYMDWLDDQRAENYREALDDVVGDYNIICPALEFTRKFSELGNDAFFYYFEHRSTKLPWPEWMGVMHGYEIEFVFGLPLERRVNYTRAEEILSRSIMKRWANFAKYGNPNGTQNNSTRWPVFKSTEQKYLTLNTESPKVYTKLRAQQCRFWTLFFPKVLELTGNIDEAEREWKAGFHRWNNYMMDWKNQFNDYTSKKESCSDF
measuredParameter: IC50 (nM)
Answers are plain numbers, in nM.

NCCCNCC(=O)Nc1c2ccccc2cc2ccccc12 = 280
NCCCCNCC(=O)Nc1cccc2ccccc12 = 10300
NCCCNCCCCNCCCNCC(=O)Nc1c2ccccc2cc2ccccc12 = 657
NCCCCCCNCC(=O)Nc1c2ccccc2cc2ccccc12 = 23

In the following, a different compound is considered.
Please provide the recorded IC50 for NCCCNCCCCNCC(=O)Nc1cccc2ccccc12 , tested on Cholinesterase (Equus caballus, UniProt P81908).
47500

----------
# targetUnderTest: Acetylcholinesterase (Electrophorus electricus)
pIC50: −log10 of the molar value.
Please go through the items and note down their pIC50.

Would you be so kind as to report pIC50 for each listed record?
1. CN(C)CCNCC(=O)Nc1c2ccccc2cc2ccccc12
2. NCCCNCC(=O)Nc1c2ccccc2cc2ccccc12
3. O=C(CNCCCO)Nc1cccc2ccccc12
4. NCCCCNCC(=O)Nc1c2ccccc2cc2ccccc12
5. NCCCCNCC(=O)Nc1cccc2ccccc12

["< 4.30", "< 4.30", "< 4.30", "< 4.30", "< 4.30"]

----------
Please go through the items and note down their IC50.
# targetUnderTest: Acetylcholinesterase (Electrophorus electricus)
One number for each entry, in µM.

The following molecules each have a reported value; give each one's IC50.
1. NCCCNCCCCNCC(=O)Nc1cccc2c1C(=O)c1ccccc1C2=O
2. NCCCNCCCCNCCCNCC(=O)Nc1cccc2c1C(=O)c1ccccc1C2=O
3. NCCCNCCCCNCC(=O)Nc1c2ccccc2cc2ccccc12

1: 2.63; 2: 7.22; 3: 25.1

----------
# targetUnderTest: Cholinesterase (Equus caballus)
# if measured IC50 < 500 nM: met  # else: not met

Please review the following examples before continuing.
O=C(CNCCCO)Nc1cccc2ccccc12 = not met
NCCCNCCCCNCC(=O)Nc1cccc2c1C(=O)c1ccccc1C2=O = not met
NCCCCNCC(=O)Nc1c2ccccc2cc2ccccc12 = met
NCCCCNCC(=O)Nc1cccc2c1C(=O)c1ccccc1C2=O = not met
NCCCNCCCCNCCCNCC(=O)Nc1cccc2c1C(=O)c1ccccc1C2=O = not met
NCCCNCCCCNCC(=O)Nc1c2ccccc2cc2ccccc12 = met
CN(C)CCNCC(=O)Nc1cccc2ccccc12 = not met
NCCCNCCCNCC(=O)Nc1c2ccccc2cc2ccccc12 = met
CN(C)CCNCC(=O)Nc1c2ccccc2cc2ccccc12 = met

Just wondering, is IC50 of O=C(CNCCCO)Nc1cccc2c1C(=O)c1ccccc1C2=O below 500 nM?
not met

----------
For reference, pIC50 measured on Acetylcholinesterase (Electrophorus electricus, UniProt O42275):
Answers are plain numbers, as −log10 of the molar value.

O=C(CNCCCO)Nc1cccc2c1C(=O)c1ccccc1C2=O = 4.95
NCCCCCCNCC(=O)Nc1c2ccccc2cc2ccccc12 = 5.56

Proceeding to the next compound to report its pIC50.
Give recorded pIC50 with Acetylcholinesterase (Electrophorus electricus, UniProt O42275) for the following compound: NCCCCNCC(=O)Nc1cccc2c1C(=O)c1ccccc1C2=O
Sequence (O42275 whole entry): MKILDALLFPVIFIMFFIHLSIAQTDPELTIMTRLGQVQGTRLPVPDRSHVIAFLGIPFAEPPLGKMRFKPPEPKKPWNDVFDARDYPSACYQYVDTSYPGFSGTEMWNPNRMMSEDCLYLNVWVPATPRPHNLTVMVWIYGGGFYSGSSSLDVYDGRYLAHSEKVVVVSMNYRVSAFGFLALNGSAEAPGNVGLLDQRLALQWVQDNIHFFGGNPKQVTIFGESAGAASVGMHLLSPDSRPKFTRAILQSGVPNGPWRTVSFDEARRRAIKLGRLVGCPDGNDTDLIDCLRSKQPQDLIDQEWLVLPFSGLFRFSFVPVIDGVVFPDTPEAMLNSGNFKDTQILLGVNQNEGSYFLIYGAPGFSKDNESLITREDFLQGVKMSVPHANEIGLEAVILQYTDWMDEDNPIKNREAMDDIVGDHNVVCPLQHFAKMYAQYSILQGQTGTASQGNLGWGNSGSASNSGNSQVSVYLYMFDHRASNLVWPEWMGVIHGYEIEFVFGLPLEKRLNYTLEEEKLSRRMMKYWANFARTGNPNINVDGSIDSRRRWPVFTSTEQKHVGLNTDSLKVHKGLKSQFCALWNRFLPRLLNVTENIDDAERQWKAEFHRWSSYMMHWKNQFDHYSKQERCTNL
5.82

----------
# targetUnderTest: UniProt O42275
pIC50: −log10 of the molar value.
measuredParameter: pIC50

Recorded results for 2 compounds are shown here.
CN(C)CCNCC(=O)Nc1cccc2ccccc12 = < 4.30
NCCCNCCCCNCCCNCC(=O)Nc1c2ccccc2cc2ccccc12 = < 4.30

Continue with the next compound.
For the compound NCCCNCCCCNCCCNCC(=O)Nc1cccc2ccccc12 , what pIC50 is on record?
< 4.30
